Source: ChEMBL document CHEMBL4480426

- measurement target: Adenosine receptor A3 (Homo sapiens) (UniProt P0DMS8)
- Sequence (whole entry): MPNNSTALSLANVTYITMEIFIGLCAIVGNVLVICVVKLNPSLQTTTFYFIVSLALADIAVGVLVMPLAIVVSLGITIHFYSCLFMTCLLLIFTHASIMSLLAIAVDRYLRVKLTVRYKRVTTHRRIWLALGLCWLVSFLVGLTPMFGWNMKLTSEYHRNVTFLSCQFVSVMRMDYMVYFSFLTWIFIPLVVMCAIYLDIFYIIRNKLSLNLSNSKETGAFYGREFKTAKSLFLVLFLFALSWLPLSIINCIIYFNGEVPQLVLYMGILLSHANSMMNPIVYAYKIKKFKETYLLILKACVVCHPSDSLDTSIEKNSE
- test summary: Displacement of [3H]PSB11 from recombinant human adenosine A3 receptor expressed in CHO cells at 1 uM relative to control
- Assay type: cell-based
Please enter rule met where inhibition is greater than or equal to 20%, and rule not met where it is lower.

Sample answers from the record:
                            chemical_smiles    class_name
0  COc1ccccc1CN1CCn2c1nc1c2c(=O)n(C)c(=O)n1C  rule not met
1  Cn1c(=O)c2c(nc3n2CCCCN3Cc2ccccc2Cl)n(C)c1=O  rule not met
2  Cn1c(=O)c2c(nc3n2CCCCN3Cc2cccc(Br)c2)n(C)c1=O      rule met
3  Cn1c(=O)c2c(nc3n2CCN3Cc2ccc(F)c(Br)c2)n(C)c1=O  rule not met
4  Cn1c(=O)c2c(nc3n2CCN3Cc2ccccc2Br)n(C)c1=O      rule met

Assess whether reported inhibition for Cn1c(=O)c2c(nc3n2CCCCN3Cc2ccc(Cl)c(Cl)c2)n(C)c1=O sits at 20% or higher.
rule met

Assess whether reported inhibition for Cn1c(=O)c2c(nc3n2CCN3Cc2ccc(Cl)cc2)n(C)c1=O sits at 20% or higher.
rule met

Assess whether reported inhibition for Cn1c(=O)c2c(nc3n2CCCCN3Cc2ccc(Cl)cc2Cl)n(C)c1=O sits at 20% or higher.
rule met

Assess whether reported inhibition for Cn1c(=O)c2c(nc3n2CCCCN3Cc2ccccc2F)n(C)c1=O sits at 20% or higher.
rule not met

Assess whether reported inhibition for Cn1c(=O)c2c(nc3n2CCCCN3Cc2ccccc2Br)n(C)c1=O sits at 20% or higher.
rule met

Assess whether reported inhibition for Cn1c(=O)c2c(nc3n2CCCCN3Cc2ccc(Cl)cc2)n(C)c1=O sits at 20% or higher.
rule not met

Assess whether reported inhibition for Cn1c(=O)c2c(nc3n2CCN3Cc2ccc(Cl)c(Cl)c2)n(C)c1=O sits at 20% or higher.
rule not met

Assess whether reported inhibition for Cn1c(=O)c2c(nc3n2CCN3Cc2cccc(Br)c2)n(C)c1=O sits at 20% or higher.
rule met

Assess whether reported inhibition for COc1ccccc1CN1CCCCn2c1nc1c2c(=O)n(C)c(=O)n1C sits at 20% or higher.
rule not met

* * *

- measurement target: Amine oxidase [flavin-containing] B (Homo sapiens, UniProt P27338)
- Sequence (P27338 whole entry): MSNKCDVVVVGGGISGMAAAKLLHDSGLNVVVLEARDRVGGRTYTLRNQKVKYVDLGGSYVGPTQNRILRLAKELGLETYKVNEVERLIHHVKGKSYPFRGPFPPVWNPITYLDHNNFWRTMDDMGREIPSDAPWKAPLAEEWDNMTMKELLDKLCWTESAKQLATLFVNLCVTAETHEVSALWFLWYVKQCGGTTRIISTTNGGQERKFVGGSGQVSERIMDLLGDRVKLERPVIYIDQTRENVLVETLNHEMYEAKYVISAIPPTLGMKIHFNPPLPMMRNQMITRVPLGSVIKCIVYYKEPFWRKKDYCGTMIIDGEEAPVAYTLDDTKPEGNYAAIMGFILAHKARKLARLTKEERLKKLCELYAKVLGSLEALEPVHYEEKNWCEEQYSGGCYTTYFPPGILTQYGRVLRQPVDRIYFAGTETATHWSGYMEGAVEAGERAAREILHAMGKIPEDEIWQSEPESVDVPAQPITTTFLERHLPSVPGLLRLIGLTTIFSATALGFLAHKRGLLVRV
- test summary: Inhibition of recombinant human MAOB expressed in baculovirus infected BTI insect cells using p-tyramine as substrate preincubated for 30 mins followed by substrate addition and measured over 45 mins by horseradish peroxidase-Amplex Red-coupled fluorometric assay
measured quantity: pIC50
Friendly reminder that pIC50 comes from taking -log10 of the concentration in mol/L.

Supply measured pIC50 of Cn1c(=O)c2c(nc3n2CCCCN3Cc2ccc(Cl)cc2Cl)n(C)c1=O in your reply.
6.55

Supply measured pIC50 of Cn1c(=O)c2c(nc3n2CCCN3Cc2ccc(Cl)c(F)c2)n(C)c1=O in your reply.
6.58

Supply measured pIC50 of Cn1c(=O)c2c(nc3n2CCCN3Cc2cc(C(F)(F)F)ccc2Cl)n(C)c1=O in your reply.
5.97

Supply measured pIC50 of Cn1c(=O)c2c(nc3n2CCCN3Cc2c(F)cccc2Cl)n(C)c1=O in your reply.
6.24

Supply measured pIC50 of Cn1c(=O)c2c(nc3n2CCN3Cc2ccc(Cl)c(Cl)c2)n(C)c1=O in your reply.
6.29

Supply measured pIC50 of Cn1c(=O)c2c(nc3n2CCN3Cc2ccccc2Br)n(C)c1=O in your reply.
6.00

Supply measured pIC50 of Cn1c(=O)c2c(nc3n2CCCN3Cc2ccccc2Br)n(C)c1=O in your reply.
6.82

Supply measured pIC50 of Cn1c(=O)c2c(nc3n2CCCCN3Cc2ccc(Cl)c(Cl)c2)n(C)c1=O in your reply.
7.08

Supply measured pIC50 of Cc1cccc(CN2CCCn3c2nc2c3c(=O)n(C)c(=O)n2C)c1 in your reply.
6.50
